experiment: Toxicity in rat bearing M1 cells assessed as mortality at 40% LD50 per day; type: organism-based; details: m1, 40 % LD50 per day, read-out: Activity
measured_quantity: mortality (%)
Just the number please, in %, no unit attached.

Problem: mortality lookup needed for CC1SCCN1P(=O)(N1CC1)N1CC1 (stereo unspecified) , thanks.
Solution: 25

---

The entries below come with measured log10(ED50) values attached.
test system: CCRF S-180; test: Antitumor activity against mouse S180 cells implanted in ip dosed ddY mouse assessed as tumor volume after 7 days; type: functional
A difference of one corresponds to tenfold ED50; all values are log10 with ED50 in µg/mL.

Would you please look over these solved cases?
{"compound": "C=C1C2=C(C(=O)C(C)=C(OC)C2=O)N2C[C@H]3[C@H](N3C)[C@]12O (some centres not stated)", "test_result": 0.83}
{"compound": "COC1=C(C)C(=O)C2=C(C1=O)[C@H](COC(N)=O)[C@@]1(O)[C@@H]3[C@H](CN21)N3C (some centres not stated)", "test_result": 0.40}
{"compound": "COC1=C(C)C(=O)C2=C(C1=O)[C@H](COC(N)=O)[C@@]1(OC)[C@@H]3[C@H](CN21)N3C (some centres not stated)", "test_result": 1.00}
{"compound": "C=C1C2=C(C(=O)C(C)=C(N)C2=O)N2C[C@H]3[C@H](N3C)[C@]12OC (some centres not stated)", "test_result": 1.54}
{"compound": "COC1=C(C)C(=O)C2=C(C1=O)[C@@H](COC(N)=O)[C@@]1(O)[C@H]3N[C@H]3CN21", "test_result": 0.69}
{"compound": "COC1=C(C)C(=O)C2=C(C1=O)[C@@H](COC(N)=O)[C@@]1(OC)[C@H]3N[C@H]3CN21", "test_result": 0.04}

Please examine the following record next.
Problem: Any idea what log10(ED50) came out for COC1=C(C)C(=O)C2=C(C1=O)[C@@H](COC(N)=O)[C@@]1(OC)[C@@H]3[C@H](CN21)N3C (some centres not stated) on CCRF S-180?
Solution: 0.11
